Listed here are compounds together with their documented T/C.
Test system: BDF1 mice, P388 leukemia ip, median survival T/C
assay: NCI In Vivo Anticancer Drug Screen. Data for tumor model P388 Leukemia (intraperitoneal) in B6D2F1 (BDF1) mice
condition context: endpoint: median survival time; dose: 100.0 mg/kg/injection; schedule: Q01DX009 (ip); vehicle: saline with Tween-80; higher = longer survival
Toxic doses and inconclusive results are not listed.

{"columns": ["compound", "T/C"],
 "data": [
  ["CC(c1ccccc1)N1COc2ccc3ccccc3c2C1 (stereo not given)", "100 % of control"],
  ["O=C1OC(=O)C2C1C(c1ccc(Cl)cc1)N1C3C(=O)OC(=O)C3C(c3ccc(Cl)cc3)N21 (stereo not given)", "93 % of control"],
  ["Cc1ccc(S(=O)(=O)c2ccc([N+](=O)[O-])c3no[n+]([O-])c23)cc1", "116 % of control"]
]}

Per the record, CC1(C)C2=CCCC3(OCCO3)C2(C)CCC1O (stereo not given) has T/C of 100 % of control

Per the record, `Ic1ccccc1C[N+]12CN3CN(CN(C3)C1)C2` has T/C of 120 % of control

Per the record, `CCC(=O)/C(=C\c1ccccc1Cl)C(C)=O` has T/C of 116 % of control

Per the record, `CN1c2ccc3ccccc3c2Sc2ccc3ccccc3c21` has T/C of 113 % of control

Per the record, `[Cl][Pd][Cl].[NH-]CC[NH-]` has T/C of 118 % of control

Per the record, `COc1ccc(S(=O)(=O)c2ccccc2)c2nonc12` has T/C of 92 % of control

###

Listed here are molecules together with their documented T/C.
System: BDF1 mice, P388 leukemia ip, median survival T/C
assay: NCI In Vivo Anticancer Drug Screen. Data for tumor model P388 Leukemia (intraperitoneal) in B6D2F1 (BDF1) mice
condition context: endpoint: median survival time; dose: 4.0 mg/kg/injection; schedule: Q01DX009 (ip); vehicle: saline; higher = longer survival
Toxic doses and inconclusive results are not listed.

{"columns": ["molecule", "test system", "T/C"],
 "data": [
  ["O=C1OC(C(O)CO)C(O)=C1O (centres undefined)", "BDF1 mice, P388 leukemia ip, median survival T/C", "90 % of control"],
  ["CCCC1CC[N-]CC1.CCCC1CC[N-]CC1.CCCC1CC[N-]CC1.CCCC1CC[N-]CC1.[Cl][Ni][Cl]", "BDF1 mice, P388 leukemia ip, median survival T/C", "97 % of control"],
  ["CCC12C=CCN3CCC4(c5cc(C(CN6CCCCC6)c6cn(C)c7ccccc67)c(OC)cc5N(C)C4C(O)(C(=O)OC)C1OC(C)=O)C32 (centres undefined)", "BDF1 mice, P388 leukemia ip, median survival T/C", "104 % of control"]
]}

Per the record, CCC12C=CCN3CCC4(c5c(C(c6ccc(OC)cc6)c6c(CN(C)C)c7ccccc7n6C)cc(OC)cc5N(C)C4C(O)(C(=O)OC)C1OC(C)=O)C32 (centres undefined) has T/C of 97 % of control

###

System: BDF1 mice, P388 leukemia ip, median survival T/C
assay: NCI In Vivo Anticancer Drug Screen. Data for tumor model P388 Leukemia (intraperitoneal) in B6D2F1 (BDF1) mice
condition context: endpoint: median survival time; dose: 25.0 mg/kg/injection; schedule: Q04DX003 (ip); vehicle: water; higher = longer survival
Inconclusive results and toxic doses are left out.
measured quantity: T/C

{"columns": ["compound", "T/C"],
 "data": [
  ["O=C1/C(=N/O)Cc2ccccc21", "104 % of control"],
  ["CN(C)Cc1ccc(C(C)(C)C)cc1", "106 % of control"],
  ["CCN(CC)CCCC(C)NS(=O)(=O)c1cccc2c(N(C)C)cccc12 (configuration not stated)", "118 % of control"],
  ["CCOC(=O)Nc1cncc(NC(=O)OCC)n1", "105 % of control"],
  ["O=c1[nH]c2ccccc2c(=O)n1C1CCCCC1", "100 % of control"]
]}

Turning to the following compound.
Per the record, COc1cccc(C(O)c2ccncc2C)c1OC (configuration not stated) has T/C of 97 % of control
